Target: human GLP1-R (Homo sapiens)
Sequence (P43220 24-463): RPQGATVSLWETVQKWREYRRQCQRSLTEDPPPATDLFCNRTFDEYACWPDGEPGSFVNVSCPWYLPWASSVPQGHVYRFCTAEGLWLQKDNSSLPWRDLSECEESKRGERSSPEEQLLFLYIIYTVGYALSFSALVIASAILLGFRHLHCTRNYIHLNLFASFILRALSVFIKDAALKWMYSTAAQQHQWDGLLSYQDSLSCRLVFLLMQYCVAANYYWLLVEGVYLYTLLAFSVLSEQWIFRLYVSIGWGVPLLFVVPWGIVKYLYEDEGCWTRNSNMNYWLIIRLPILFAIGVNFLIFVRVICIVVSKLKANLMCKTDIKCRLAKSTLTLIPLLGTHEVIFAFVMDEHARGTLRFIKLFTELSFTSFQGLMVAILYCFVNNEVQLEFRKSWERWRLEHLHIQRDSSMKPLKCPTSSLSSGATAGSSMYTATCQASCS
Assay: GLP1-R internalization assay in HEK293 cells
Type: cell-based
Conditions: HEK293 cells expressing SNAP-GLP-1R; read-out: GLP1R Internalization EC50
Starred links: 1 amine or outer side, 2 acyl side, 3 side chain; linkers in the order of their positions; H or OH if unused. Non-standard residues stand in square brackets, D forms with d. Groups on a side chain read outwards from the residue. No end group written: not given here. *: point of attachment. C20 diacid = O=C(O)CCCCCCCCCCCCCCCCCCC(=O)*; C18 diacid = O=C(O)CCCCCCCCCCCCCCCCC(=O)*; αMePhe(2-F) = C[C@](N)(Cc1ccccc1F)C(=O)O; γGlu = O=C(O)[C@H](CCC(=O)[*:2])N[*:1]; αMe4Pal = C[C@](N)(Cc1ccncc1)C(=O)O; αMeY = C[C@](N)(Cc1ccc(O)cc1)C(=O)O; 4Pal = N[C@@H](Cc1ccncc1)C(=O)O; αMeL = CC(C)C[C@](C)(N)C(=O)O; Orn = NCCC[C@H](N)C(=O)O; Dap = NC[C@H](N)C(=O)O; AEEA = NCCOCCOCC(=O)O; Aib = CC(C)(N)C(=O)O
The threshold is 60 nM. Values of EC50 beneath it are tagged satisfied; values meeting or exceeding it are tagged not satisfied.

{"substance": "H-Y[Aib]QGTFTSDFS[Orn][αMeL]LDKK([AEEA-γGlu-γGlu-C18 diacid])AQ[Aib]AFIEYLLE[Aib]GPSSGAPPPSGS-NH2 [Example 192]", "category label": "not satisfied"}
{"substance": "Y[Aib]QGTFTSD[4Pal]SQ[αMeL]LD[Orn]K([γGlu-γGlu-C18 diacid])AQ[αMe4Pal]QFIE[αMeY]LIEGGPSSGEPPPSGSEE-NH2 [Example 1026]", "category label": "satisfied"}
{"substance": "H-Y[Aib]QGTFTSD[4Pal]SK[αMeL]LDKK([AEEA-γGlu-C18 diacid])AQ[Aib]AFIEYLIE[Aib]GESSGAPPPSGS-NH2 [Example 280]", "category label": "satisfied"}
{"substance": "H-Y[Aib]QGTFTSDFS[Orn][αMeL]LDKK([AEEA-γGlu-C18 diacid])AQ[Aib]AFIEYLLAGGPSSGAPPPSGSE-NH2 [Example 90]", "category label": "not satisfied"}
{"substance": "H-Y[Aib]QGTFTSDYSQ[αMeL]LDKK([AEEA-γGlu-C18 diacid])AQ[Aib]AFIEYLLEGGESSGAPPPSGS-NH2 [Example 362]", "category label": "satisfied"}
{"substance": "H-Y[Aib]QGT[αMePhe(2-F)]TSDYSKLLDKIAQK([AEEA-γGlu-C20 diacid])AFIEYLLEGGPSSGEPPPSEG-NH2 [Example 295]", "category label": "satisfied"}
{"substance": "H-Y[Aib]QGTFTSDFS[Orn][αMeL]LDKK([AEEA-AEEA-γGlu-C18 diacid])AQ[Aib]AFIEYLLE[dA]GPSSGEPPPSGE-NH2 [Example 117]", "category label": "satisfied"}
{"substance": "H-Y[Aib]QGTFTSDYS[Dap][αMeL]LDKK([AEEA-γGlu-C18 diacid])AQ[Aib]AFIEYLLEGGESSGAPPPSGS-NH2 [Example 360]", "category label": "not satisfied"}
{"substance": "H-Y[Aib]QGT[αMePhe(2-F)]TSD[4Pal]SILLDKK([γGlu-γGlu-C18 diacid])AQ[Aib]AFIEYLEEGGPSSGAPPPSGTGE-NH2 [Example 510]", "category label": "satisfied"}
{"substance": "H-Y[Aib]QGTFTSDFSK[αMeL]LDKK([AEEA-γGlu-C20 diacid])AQ[Aib]AFIEWLLEGGPSSGAPPPSEG-NH2 [Example 37]", "category label": "satisfied"}
{"substance": "H-Y[Aib]QGTFTSDFS[Orn][αMeL]LDKK([AEEA-γGlu-C18 diacid])AQ[Aib]AFIEYLLE[Aib]G[4Pal]SSGAPPPSGE-NH2 [Example 248]", "category label": "not satisfied"}
{"substance": "H-Y[Aib]QGTFTSDYS[Orn][αMeL]LDKK([AEEA-γGlu-C18 diacid])AQ[Aib]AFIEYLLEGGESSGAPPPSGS-NH2 [Example 359]", "category label": "satisfied"}
{"substance": "H-Y[Aib]QGTFTSDFS[Orn][αMeL]LDKK([AEEA-γGlu-C20 diacid])AQ[Aib]AFIEWLLEGGPSSGAPPPSGS-NH2 [Example 78]", "category label": "not satisfied"}
{"substance": "H-Y[Aib]QGTFTSDFSK[αMeL]LDKK([γGlu-γGlu-C18 diacid])AQ[Aib]AFIEYLLEGGPSSGAPPPSEG-NH2 [Example 58]", "category label": "satisfied"}
{"substance": "H-Y[Aib]QGTFTSDFS[Orn][αMeL]LDKK([AEEA-γGlu-C18 diacid])AQ[αMe4Pal]AFIEYLIE[Aib]GESSGAPPPSGE-NH2 [Example 228]", "category label": "satisfied"}
{"substance": "H-Y[Aib]QGTFTSDFS[Orn][αMeL]LDKK([AEEA-γGlu-C18 diacid])AQ[Aib]AFIEWLLEGGTSSGAPPPSGS-NH2 [Example 176]", "category label": "not satisfied"}
{"substance": "H-Y[Aib]QGTFTSD[4Pal]SR[αMeL]LDKK([AEEA-γGlu-C18 diacid])AQ[Aib]AFIEYLLE[Aib]GPSSGAPPPSGE-NH2 [Example 114]", "category label": "satisfied"}
{"substance": "H-Y[Aib]QGTFTSDFS[Orn][αMeL]LDKK([AEEA-γGlu-C18 diacid])AQ[Aib]AFIEWLLEGGHSSGAPPPSGE-NH2 [Example 122]", "category label": "satisfied"}
{"substance": "H-Y[Aib]QGTFTSD[4Pal]SK[αMeL]LDKK([AEEA-γGlu-C18 diacid])AQ[Aib]AFIEYLIE[Aib]GESSGEPPPSGS-NH2 [Example 282]", "category label": "satisfied"}
{"substance": "H-Y[Aib]QGTFTSDFS[Orn][αMeL]LDKK([AEEA-γGlu-C18 diacid])AQ[Aib]AFIEYLIE[Aib]GESSGAPPPSGE-NH2 [Example 219]", "category label": "satisfied"}
{"substance": "H-Y[Aib]QGTFTSDFS[Orn][αMeL]LDKK([AEEA-γGlu-C18 diacid])AQ[Aib]AFIEYLLEGGHSSGAPPPGGS-NH2 [Example 162]", "category label": "satisfied"}
{"substance": "H-Y[Aib]QGTFTSDFS[Orn][αMeL]LDKK([AEEA-γGlu-C18 diacid])AQ[Aib]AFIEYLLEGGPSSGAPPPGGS[AEEA]-NH2 [Example 66]", "category label": "satisfied"}

Every entry's value here was drawn from patent US20240270821A1.
